Catalogue of pIC50 values
Biological target: myeloperoxidase (MPO) (Homo sapiens, UniProt P05164)
Experiment: MPO peroxidation assay (Amplex Red assay)
Type: biochemical
Conditions: MPO peroxidation (Amplex Red), ranges given; read-out: MPO peroxidation assay IC50 values (binned)
pIC50: −log10 of the molar value.

Consider Nc1nc(OCc2cccc3occc23)c2nn[nH]c2n1 [Example 112] . Its measured pIC50 is 6.82 to 7.22

Consider Cc1nn(C[C@@H]2C[C@H](Oc3ccccc3)CN2)nc1COc1cc(N)nc2[nH]nnc12 [Example 73] . Its measured pIC50 is ≥ 7.22

Consider Cn1ccc(-c2ccc(F)c(COc3cc(N)nc4[nH]nnc34)n2)n1 [Example 96] . Its measured pIC50 is ≥ 7.22

Consider Nc1nc(OCc2ccc(Cl)nc2)c2nn[nH]c2n1 [Example 120] . Its measured pIC50 is 6.00 to 6.82

====

Catalogue of pIC50 values
Target: myeloperoxidase (MPO) (Homo sapiens)
Sequence (P05164 49-745): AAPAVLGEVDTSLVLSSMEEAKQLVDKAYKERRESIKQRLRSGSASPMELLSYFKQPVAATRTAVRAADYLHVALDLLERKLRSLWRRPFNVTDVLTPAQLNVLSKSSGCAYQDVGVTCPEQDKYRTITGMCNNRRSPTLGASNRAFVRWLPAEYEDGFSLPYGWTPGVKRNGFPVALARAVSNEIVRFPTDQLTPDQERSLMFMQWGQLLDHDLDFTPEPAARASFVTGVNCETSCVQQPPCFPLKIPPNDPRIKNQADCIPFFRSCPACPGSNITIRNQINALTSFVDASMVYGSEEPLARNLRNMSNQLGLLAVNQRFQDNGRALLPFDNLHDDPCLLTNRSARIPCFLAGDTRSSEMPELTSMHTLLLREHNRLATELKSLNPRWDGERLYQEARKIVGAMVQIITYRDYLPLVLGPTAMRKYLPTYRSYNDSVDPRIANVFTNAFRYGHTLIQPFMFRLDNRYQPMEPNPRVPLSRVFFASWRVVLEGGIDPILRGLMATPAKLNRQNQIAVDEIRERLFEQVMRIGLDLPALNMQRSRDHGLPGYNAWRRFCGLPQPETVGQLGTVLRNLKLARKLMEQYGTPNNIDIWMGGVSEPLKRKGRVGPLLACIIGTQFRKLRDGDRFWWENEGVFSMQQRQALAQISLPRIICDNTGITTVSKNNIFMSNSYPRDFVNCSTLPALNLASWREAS
Experiment: MPO peroxidation assay (Amplex Red assay)
Format: biochemical
Settings: MPO peroxidation, 100 mM KPi pH 7.4, ten minute preincubation; read-out: Amplex Red Assay IC50 value
Conceptually, pIC50 converts a concentration in mol/L into minus its log10.

Consider the worked cases shown below.
{"COMPOUND": "Cc1nn(-c2cccc(F)c2)nc1COc1cc(N)nc2[nH]nnc12", "RECORDED_RESULT": 7.70}
{"COMPOUND": "Nc1cc(OCC2CCN(C3=NC=CCN3)CC2)c2nn[nH]c2n1", "RECORDED_RESULT": 5.97}
{"COMPOUND": "Nc1cc(OCc2cncn2Cc2ccccc2)c2nn[nH]c2n1", "RECORDED_RESULT": 5.62}
{"COMPOUND": "Cc1nn(-c2ccc(N3CCNC(=O)C3)nc2)nc1COc1cc(N)nc2[nH]nnc12", "RECORDED_RESULT": 7.05}
{"COMPOUND": "CS(=O)(=O)N1CCCCC1COc1cc(N)nc2[nH]nnc12 (stereo not shown)", "RECORDED_RESULT": 5.69}
{"COMPOUND": "Cn1ncc2c(COc3cc(N)nc4[nH]nnc34)cccc21", "RECORDED_RESULT": 7.70}
{"COMPOUND": "Nc1cc(OCc2cccnc2Cl)c2nn[nH]c2n1", "RECORDED_RESULT": 6.96}
{"COMPOUND": "COc1cccc(-n2nc(C)c(COc3cc(N)nc4[nH]nnc34)n2)c1", "RECORDED_RESULT": 7.52}
{"COMPOUND": "COc1ccc(-n2nc(C)c(COc3cc(N)nc4[nH]nnc34)n2)cc1", "RECORDED_RESULT": 7.70}
{"COMPOUND": "CCn1nc(COc2cc(N)nc3[nH]nnc23)cc1C(F)(F)F", "RECORDED_RESULT": 7.70}

Consider `COc1cc(-c2nc(COc3cc(N)nc4[nH]nnc34)c(C)o2)ccc1Cl` . Its measured pIC50 is 6.12

Consider `CCc1nn(-c2ccccc2)nc1COc1cc(N)nc2[nH]nnc12` . Its measured pIC50 is 7.10

Consider `Nc1cc(OCc2nn(Cc3ccccc3)c3ccccc23)c2nn[nH]c2n1` . Its measured pIC50 is 7.10

Consider Nc1cc(OCC2COc3ccccc3C2)c2nn[nH]c2n1 (stereo not shown) . Its measured pIC50 is 5.86

Consider Nc1cc(OCC2COc3ccccc3O2)c2nn[nH]c2n1 (stereo not shown) . Its measured pIC50 is 6.21

Consider `Cc1oc(-c2ccc(S(C)(=O)=O)cc2)nc1CSc1cc(N)nc2[nH]nnc12` . Its measured pIC50 is 7.05
